Entry source: patent US20170340735A1

test.target: T1, human TIGIT on the cell surface (human, UniProt Q495A1 22-244)
T1 construct: Expressed on engineered Jurkat cells or naturally on human primary CD8+ T cells (the cells are named under assay); also called Human TIGIT Jurkat; human TIGIT expressing Jurkat cells
T1 sequence: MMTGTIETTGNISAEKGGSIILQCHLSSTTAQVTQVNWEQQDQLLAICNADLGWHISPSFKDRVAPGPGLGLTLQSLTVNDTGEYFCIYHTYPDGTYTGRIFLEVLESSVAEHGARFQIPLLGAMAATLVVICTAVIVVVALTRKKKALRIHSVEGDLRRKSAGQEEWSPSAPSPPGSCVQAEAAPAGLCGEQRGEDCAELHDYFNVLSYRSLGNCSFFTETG
method: flow cytometry, antibody titrated against labeled PVRL2-Fc binding to human TIGIT Jurkat cells
readout.name: pIC50
Note: pIC50 values are expressed as the negative base-10 logarithm of concentration in M.

A selection of reference data follows.
MAB15-IgG4 (antibody, V domains shown) VH: QVQLVQSGAEVKKPGASVKVSCKASGYTFREYYMHWVRQAPGQGLEWMGIINPSIGLTSYARKFQGRVTMTRDTSTSTVYMELSSLRSEDTAVYYCARGGRTTWIGAFDIWGQGTMVTVSS VL: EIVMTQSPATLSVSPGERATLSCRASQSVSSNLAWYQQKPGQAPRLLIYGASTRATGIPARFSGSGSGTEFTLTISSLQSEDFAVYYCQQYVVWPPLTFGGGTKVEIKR: 8.96
MAB21-IgG4 (antibody, V domains shown) VH: QVQLVQSGAEVKKPGASVKVSCKASGYTFTSHYMGWVRQAPGQGLEWMGIINPSMGATSYTQKFRGRVTMTRDTSTSTVYMELSSLRSEDTAVYYCARLHVSGSYYPAYLDYWGQGTMVTVSS VL: EIVMTQSPATLSVSPGERATLSCRASQSVSSNLAWYQQKPGQAPRHLIYGASTRATGIPARFSGSGSGTEFTLTISSLQSEDFAVYYCQQYIVFPWTFGGGTKVEIKR: 9.10

Lab note: measured pIC50 of MAB5-IgG4 (antibody, V domains shown) VH: QLQLQESGPGLVKPSETLSLTCTVSGGSISSTSHYWGWIRQPPGKGLEWIGSIYYSGSTFYNPSLKGRVTISVDTSKNQFSLKLSSVTAADTAVYYCARDANYYGSAWAFDPWGQGTLVTVSS VL: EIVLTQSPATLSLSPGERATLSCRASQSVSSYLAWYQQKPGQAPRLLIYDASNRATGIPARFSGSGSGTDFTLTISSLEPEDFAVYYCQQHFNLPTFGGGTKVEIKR was 8.85
